# Target or test system: Ribosomal protein S6 kinase beta-1 (Homo sapiens)
# Measurement notes: Inhibition of p70S6K at 10 uM by HTRF assay relative to control
Please use YES whenever inhibition is not below 7%, and NO whenever it is.

- Compound: "O=C(CN1CCN(c2ncnc3c2CN(Cc2ccccc2)CC3)CC1)Nc1cc(F)ccc1F"
  Discrete label: "YES"
- Compound: "COc1cccc(Nc2cc(Nc3cccc(C(=O)NCCCn4ccnc4)c3)nc(N)n2)c1"
  Discrete label: "YES"
- Compound: "Cc1cccc(Nc2ncnc3c2CN(C(=O)c2ccc(N(C)C)c4ccccc24)CC3)c1"
  Discrete label: "NO"
- Compound: "CN(C)c1ccc(C(=O)N2CCN(c3ncnc4c3CN(Cc3ccccc3)CC4)CC2)c2ccccc12"
  Discrete label: "NO"
- Compound: "O=C(c1nc(SCc2ccc(Cl)cc2)n2ccccc12)N1CCN(c2cc(Nc3cccc(Br)c3)ncn2)CC1"
  Discrete label: "NO"
- Compound: "Cc1cccc(N(C)c2cc(Nc3cccc(C(=O)N4CCCC5CCCCC54)c3)ncn2)c1 (centres undefined)"
  Discrete label: "YES"
